experiment: Water solubility (sonicated suspension, HPLC); type: physicochemical; conditions: in water;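 further: concentration in the clear supernatant quantified by HPLC peak area against a DMSO standard solution of the same compound, corrected for dilution and injection volume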
MEASUREMENT KIND: log10 of Solubility (log10 of the value in µg/mL)

{"columns": ["STRUCTURE SMILES STRING", "log10 of Solubility"],
 "data": [
  ["O=[N+]([O-])c1cn2c(n1)OC[C@@H](OCc1ccc(-c3ccc(C(F)(F)F)cn3)cc1)C2", -0.70],
  ["O=[N+]([O-])c1cn2c(n1)OC[C@@H](OCc1ncc(-c3ccc(OC(F)(F)F)cc3)cn1)C2", 0.91],
  ["O=[N+]([O-])c1cn2c(n1)OC[C@@H](OCc1ccc(-c3ccc(OC(F)(F)F)c(F)c3)nc1)C2", 0.48],
  ["O=[N+]([O-])c1cn2c(n1)OC[C@@H](OCc1cnc(-c3ccc(OC(F)(F)F)cc3)cn1)C2", 0.41],
  ["O=[N+]([O-])c1cn2c(n1)OC[C@@H](OCc1ccc(-c3ccc(F)cc3)nc1)C2", 0.58],
  ["O=[N+]([O-])c1cn2c(n1)OC[C@@H](OCc1ccc(-c3ccc(OC(F)(F)F)cc3)nc1)C2", 0.36],
  ["O=[N+]([O-])c1cn2c(n1)OC[C@@H](OCC#Cc1ccc(-c3ccc(OC(F)(F)F)cc3)cc1)C2", -1.15]
]}

====

assay: Stability to human liver microsomes; format: in vitro ADME; conditions: 1 μM, 37° C., 60 min, pooled human liver microsomes;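 further: parent compound quantified by LC-MS/MS against an internal standard, duplicates averaged, expressed relative to the 0 min sample taken as 100%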
// assign Fulfilled if Microsomes (% remaining, 1 h) Human falls strictly below 90%, else Not fulfilled (ties count as Not fulfilled)

{"columns": ["COMPOUND", "LABEL CLASS"],
 "data": [
  ["O=[N+]([O-])c1cn2c(n1)OC[C@@H](OCc1ccc(-c3ccc(OC(F)(F)F)c(Cl)c3)nc1)C2", "Fulfilled"],
  ["O=[N+]([O-])c1cn2c(n1)OC[C@@H](OCc1ccc(-c3ccc(F)cn3)cc1)C2", "Fulfilled"],
  ["Cn1nc(-c2ccc(OC(F)(F)F)cc2)cc1CO[C@@H]1COc2nc([N+](=O)[O-])cn2C1", "Fulfilled"],
  ["O=[N+]([O-])c1cn2c(n1)OC[C@@H](OCc1ccc(-c3ccc(OC(F)(F)F)cc3)cc1F)C2", "Not fulfilled"],
  ["O=[N+]([O-])c1cn2c(n1)OC[C@@H](OCc1ccc(Cc3ccc(OC(F)(F)F)cc3)cc1)C2", "Fulfilled"],
  ["O=[N+]([O-])c1cn2c(n1)OC[C@@H](OCc1ccc(-c3ccc(C(F)(F)F)nc3)cc1)C2", "Fulfilled"],
  ["O=[N+]([O-])c1cn2c(n1)OC[C@@H](OC/C=C/c1ccc(-c3ccc(OC(F)(F)F)cc3)cc1)C2", "Not fulfilled"],
  ["O=[N+]([O-])c1cn2c(n1)OC[C@@H](OCc1cnc(-c3ccc(OC(F)(F)F)cc3)cn1)C2", "Not fulfilled"],
  ["O=[N+]([O-])c1cn2c(n1)OC[C@@H](OCc1ccc(/C=C/c3ccc(OC(F)(F)F)cc3)cc1)C2", "Not fulfilled"],
  ["O=[N+]([O-])c1cn2c(n1)OC[C@@H](OCc1ccc(-c3ccc(OC(F)(F)F)c(F)c3)cn1)C2", "Not fulfilled"],
  ["O=[N+]([O-])c1cn2c(n1)OC[C@@H](OCc1cnc(-c3ccc(OC(F)(F)F)cc3)nc1)C2", "Not fulfilled"],
  ["O=[N+]([O-])c1cn2c(n1)OC[C@@H](OCc1ccc(OC(F)(F)F)cc1)C2 [PA-824, reference compound]", "Fulfilled"],
  ["O=[N+]([O-])c1cn2c(n1)OC[C@@H](OCc1ccc(-c3ccc(C(F)(F)F)cn3)cc1)C2", "Not fulfilled"],
  ["O=[N+]([O-])c1cn2c(n1)OC[C@@H](OCc1ccc(-c3ccc(OC(F)(F)F)cc3)nn1)C2", "Not fulfilled"],
  ["O=[N+]([O-])c1cn2c(n1)OC[C@@H](OCc1ccc(-c3ccc(OC(F)(F)F)c(F)c3)cc1)C2", "Not fulfilled"],
  ["O=[N+]([O-])c1cn2c(n1)OC[C@@H](OCc1cnn(-c3ccc(OC(F)(F)F)cc3)c1)C2", "Fulfilled"],
  ["O=C(O[C@@H]1COc2nc([N+](=O)[O-])cn2C1)N1CCN(c2ccc(OC(F)(F)F)cc2)CC1", "Fulfilled"],
  ["O=[N+]([O-])c1cn2c(n1)OC[C@@H](OCc1ccc(-c3ccc(C(F)(F)F)nc3)cc1F)C2", "Not fulfilled"],
  ["O=[N+]([O-])c1cn2c(n1)OC[C@@H](OCc1ccc(-c3ccc(OC(F)(F)F)c(F)c3)nc1)C2", "Not fulfilled"],
  ["O=[N+]([O-])c1cn2c(n1)OC[C@@H](OCc1ccn(-c3ccc(OC(F)(F)F)cc3)n1)C2", "Fulfilled"],
  ["O=[N+]([O-])c1cn2c(n1)OC[C@@H](OCC#Cc1ccc(-c3ccc(OC(F)(F)F)cc3)cc1)C2", "Not fulfilled"],
  ["O=[N+]([O-])c1cn2c(n1)OC[C@@H](OCc1ccc(-c3ccc(OC(F)(F)F)cc3)nc1)C2", "Fulfilled"]
]}

====

MEASUREMENT KIND: melting point

{"columns": ["COMPOUND", "RESULT"],
 "data": [
  ["O=[N+]([O-])c1cn2c(n1)OC[C@@H](OCc1ccc(/C=C/c3ccc(OC(F)(F)F)cc3)cc1)C2 [Compound 31]", "228 to 230 °C"],
  ["O=[N+]([O-])c1cn2c(n1)OC[C@@H](OCc1ccc(-c3ccc(C(F)(F)F)cn3)cc1F)C2 [Compound 14]", "233 to 235 °C"],
  ["O=[N+]([O-])c1cn2c(n1)OC[C@@H](OCc1cnc(-c3ccc(OC(F)(F)F)cc3)nc1)C2 [Compound 16]", "227 to 230 °C"],
  ["O=[N+]([O-])c1cn2c(n1)OC[C@@H](OCc1ccc(C#Cc3ccc(OC(F)(F)F)cc3)cc1)C2 [Compound 32]", "233 to 236 °C"],
  ["O=[N+]([O-])c1cn2c(n1)OC[C@@H](OCc1ccc(-c3ccc(OC(F)(F)F)cc3)cc1F)C2 [Compound 12]", "160 to 162 °C"],
  ["O=[N+]([O-])c1cn2c(n1)OC[C@@H](OCc1ccc(-c3ccc(OC(F)(F)F)cc3)cn1)C2 [Compound 7]", "157 to 159 °C"],
  ["O=[N+]([O-])c1cn2c(n1)OC[C@@H](OCc1ccc(-c3ccc(C(F)(F)F)nc3)cc1)C2 [Compound 9]", "221 to 222 °C"],
  ["O=[N+]([O-])c1cn2c(n1)OC[C@@H](OCc1ccc(C#Cc3ccc(C(F)(F)F)nc3)cn1)C2 [Compound 25]", "226 to 227 °C"],
  ["O=[N+]([O-])c1cn2c(n1)OC[C@@H](OCC#Cc1ccc(-c3ccc(OC(F)(F)F)cc3)cc1)C2 [Compound 30]", "192 to 194 °C"],
  ["O=[N+]([O-])c1cn2c(n1)OC[C@@H](OCc1ccc(-c3ccc(OC(F)(F)F)c(F)c3)cn1)C2 [Compound 22]", "182 to 184 °C"],
  ["O=[N+]([O-])c1cn2c(n1)OC[C@@H](OCc1ccc(-c3ccc(F)cn3)cc1)C2 [Compound 26]", "180 to 181 °C"],
  ["O=[N+]([O-])c1cn2c(n1)OC[C@@H](OCc1ccn(-c3ccc(OC(F)(F)F)cc3)n1)C2 [Compound 10]", "103 to 105 °C"],
  ["O=[N+]([O-])c1cn2c(n1)OC[C@@H](Oc1ccc(-c3ccc(OC(F)(F)F)cc3)cc1)C2 [Compound 13]", "210 °C"],
  ["O=[N+]([O-])c1cn2c(n1)OC[C@@H](OCc1ccc(C#Cc3ccc(OC(F)(F)F)cc3)cn1)C2 [Compound 18]", "207 to 208 °C"],
  ["O=[N+]([O-])c1cn2c(n1)OC[C@@H](OCc1ccc(-c3ccc(OC(F)(F)F)c(F)c3)cc1)C2 [Compound 2]", "169 to 171 °C"],
  ["O=[N+]([O-])c1cn2c(n1)OC[C@@H](OCc1ccc(-c3ccc(OC(F)(F)F)c(Cl)c3)nc1)C2 [Compound 28]", "169 to 171 °C"],
  ["O=[N+]([O-])c1cn2c(n1)OC[C@@H](OCc1cnc(-c3ccc(OC(F)(F)F)cc3)cn1)C2 [Compound 4]", "182 to 184 °C"],
  ["O=[N+]([O-])c1cn2c(n1)OC[C@@H](OCc1ccc(-c3ccc(F)cc3)nc1)C2 (hydrate or solvate) [Compound 5]", "194 to 196 °C"],
  ["O=[N+]([O-])c1cn2c(n1)OC[C@@H](OCc1ccc(-c3ccc(OC(F)(F)F)cc3)cc1)C2 [Compound 3]", "199 to 201 °C"],
  ["O=[N+]([O-])c1cn2c(n1)OC[C@@H](OCc1ccc(-c3ccc(OC(F)(F)F)cc3)c(F)c1)C2 [Compound 15]", "181 to 183 °C"],
  ["O=[N+]([O-])c1cn2c(n1)OC[C@@H](OCc1ccc(-c3ccc(C(F)(F)F)nc3)cc1F)C2 [Compound 23]", "195 to 198 °C"],
  ["O=[N+]([O-])c1cn2c(n1)OC[C@@H](OCc1ccc(Cc3ccc(OC(F)(F)F)cc3)cc1)C2 [Compound 17]", "132 to 133 °C"],
  ["O=[N+]([O-])c1cn2c(n1)OC[C@@H](OC/C=C/c1ccc(-c3ccc(OC(F)(F)F)cc3)cc1)C2 [Compound 19]", "220 to 221 °C"],
  ["O=C(O[C@@H]1COc2nc([N+](=O)[O-])cn2C1)N1CCN(c2ccc(OC(F)(F)F)cc2)CC1 [Compound 20]", "166 to 168 °C"],
  ["O=[N+]([O-])c1cn2c(n1)OC[C@@H](OCc1ccc(-c3ccc(OC(F)(F)F)cc3Cl)cc1)C2 [Compound 1]", "80 to 82 °C"],
  ["O=[N+]([O-])c1cn2c(n1)OC[C@@H](OCc1ncc(-c3ccc(OC(F)(F)F)cc3)cn1)C2 [Compound 29]", "223 to 226 °C"],
  ["O=[N+]([O-])c1cn2c(n1)OC[C@@H](OCc1cnn(-c3ccc(OC(F)(F)F)cc3)c1)C2 [Compound 27]", "150 to 151 °C"],
  ["O=[N+]([O-])c1cn2c(n1)OC[C@@H](OCc1ccc(-c3ccc(OC(F)(F)F)cc3)nn1)C2 [Compound 24]", "194 °C (dec.)"],
  ["O=[N+]([O-])c1cn2c(n1)OC[C@@H](OCc1ccc(C#Cc3ccc(OC(F)(F)F)cc3)nc1)C2 [Compound 33]", "235 to 238 °C"],
  ["O=[N+]([O-])c1cn2c(n1)OC[C@@H](OCc1ccc(-c3ccc(C(F)(F)F)cn3)cc1)C2 [Compound 8]", "252 to 254 °C"]
]}

Entry source: patent US9198913B2
